# Kd values compiled below
- assayTarget: human catalytic PDI A1 a domain (PDIa) (Homo sapiens, UniProt P07237)
- Construct: made in house; host or cells: Escherichia coli BL21-Gold (DE3)
- Sequence (P07237 18-134): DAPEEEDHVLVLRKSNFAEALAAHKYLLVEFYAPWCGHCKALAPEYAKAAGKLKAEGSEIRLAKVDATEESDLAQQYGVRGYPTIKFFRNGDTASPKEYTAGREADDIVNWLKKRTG
- procedureDetails: Isothermal titration calorimetry (ITC) binding to PDIa
- conditionDetails: ITC assay; read-out: KD
Form entry: enter the amount, then its unit.

1. O=c1c2ccccc2sn1CN1CCN(Cn2sc3ccccc3c2=O)CC1: 13 nM
2. O=C(C1CC1)N1CCN(Cn2sc3ncccc3c2=O)CC1: 10 nM

From here, focus on the item given below.
Prompt line: Which Kd value belongs to O=c1c2cccnc2sn1CO ?
Response line: 10 nM

###

# Solubility values compiled below
- procedureDetails: physchem
- conditionDetails: NMP (N-Methyl-2-Pyrrolidine), organic solvent or mixture
Only the number, expressed in mM, is required.

1. Cc1nnc2sn(CN3CCN(Cn4sc5nnc(C)c(C)c5c4=O)CC3)c(=O)c2c1C: 1
2. O=c1c2cccc(F)c2sn1CN1CCN(Cn2sc3c(F)cccc3c2=O)CC1: 5
3. Cc1nc2sn(CN3CCN(Cn4sc5nc(C)c(C)c(C)c5c4=O)CC3)c(=O)c2c(C)c1C: 2.5
4. Cc1cc(C)c2c(=O)n(CN3CCN(Cn4sc5nc(C)cc(C)c5c4=O)CC3)sc2n1: 5

Prompt line: Which Solubility value belongs to O=c1c2cccnc2sn1CN1CCN(Cn2sc3ncccc3c2=O)CC1 ?
Response line: 5

###

- assayTarget: human catalytic PDI A1 a domain (PDIa) (Homo sapiens, UniProt P07237)
- Construct: made in house; host or cells: Escherichia coli BL21-Gold (DE3)
- procedureDetails: Isothermal titration calorimetry (ITC) binding to PDIa
- conditionDetails: read-out: KD2
# Kd values compiled below
Only the number, expressed in nM, is required.

Prompt line: Lookup: Kd / human catalytic PDI A1 a domain (PDIa) (Homo sapiens, UniProt P07237) / O=c1c2ccccc2sn1-c1ccccc1 [LC-24]
Response line: 1140

Prompt line: Here is the next compound: Cc1ccc(-n2sc3ccccc3c2=O)c(Br)c1 [LC-36]
Response line: 25

###

- System: PC12 mHTTQ103 cells
- procedureDetails: Rescue of PC12 cells from mHTTQ103-induced cell death
- Assay type: cell-based, rat
- conditionDetails: Tables 5-13; PC12 cells
Threshold check on Max Viability (%): at or above 60% gives Satisfied, strictly below gives Not satisfied.

Prompt line: I'd appreciate it if you could say whether CN1CCN(Cn2sc3ccccc3c2=O)CC1 has Max Viability (%) at least equal to 60%.
Response line: Satisfied

###

- Test system: PC12 mHTTQ103 cells
- procedureDetails: Rescue of PC12 cells from mHTTQ103-induced cell death
- Format: cell-based, rat
- conditionDetails: Tables 5-13; PC12 cells
Threshold check on Max Viability (%): at or above 40% gives y, strictly below gives n.

Below are worked cases with known answers.
1) O=c1[nH]sc2c(Cl)cccc12: n
2) O=c1c2ccccc2sn1CN1CCC(O)CC1: y
3) O=C(Nc1ccc(Oc2ccccc2)cc1)c1ccccc1S: y
4) O=c1[nH]sc2c(C(F)(F)F)cccc12: n

Prompt line: I'd appreciate it if you could say whether O=C(C1CC1)N1CCN(Cn2sc3ccccc3c2=O)CC1 has Max Viability (%) at least equal to 40%.
Response line: y

Prompt line: Here is the next compound: CC(C)(C)OC(=O)NC1CCN(Cn2sc3ccccc3c2=O)CC1
Response line: y

Prompt line: Here is the next compound: O=c1c2cccnc2sn1CCN1CCCCC1
Response line: n

Prompt line: Here is the next compound: COCCn1sc2ccccc2c1=O
Response line: y

Prompt line: Here is the next compound: C[C@H](c1ccccc1)n1sc2ncccc2c1=O
Response line: n

Prompt line: Here is the next compound: O=c1[nH]sc2ncccc12 [LC-47, isothiazolo[5,4-b]pyridin-3(2H)-one]
Response line: n
